# credit: the supplement of paper PMC9446081

# Tested on: Escherichia coli K-12 BW25113
# PROCEDURE DETAILS: relative growth (OD600 normalised to plate interquartile mean) (fraction); higher = less growth inhibition, active = 0.2 or less
# STUDY CONDITIONS: 50 µM; LB; incubation time: overnight (16-24 h)
Hit rate of the full screen: of about 39,000 compounds, about 220 (0.56%) showed activity. This excerpt belongs to a sample that is enriched for actives.
Result category, one only: label 1 = active, label 0 = inactive

Previously resolved entries follow.
Nc1c2c(nc3ccccc13)CCCC2    label 0
COc1ccc(NC(=O)N(C)C[C@@H]2OCCCC[C@H](C)Oc3ccc(NS(=O)(=O)c4cccs4)cc3C(=O)N([C@H](C)CO)C[C@H]2C)cc1    label 0
O=C(O)CCC(=O)N1CC(=O)Nc2ccccc21    label 0
COc1ccc(C(=O)Nc2ccc3c(c2)C(=O)N(C)[C@@H]2CC[C@H](CC(=O)NCC4CC4)O[C@@H]2CO3)cc1    label 0
C[C@@H]1CN([C@H](C)CO)C(=O)Cc2cc(NC(=O)CCN3CCOCC3)ccc2O[C@H]1CN(C)Cc1ccc(C(=O)O)cc1    label 0

Input line: Write down the call the test reported for this compound. Item: `C[C@]1(C(=O)NCc2ccccc2)c2ccccc2C(=O)N(Cc2ccc(OC(F)(F)F)cc2)[C@H]1c1ccc(CO)cc1`
Output line: label 0

Input line: Write down the call the test reported for this compound. Item: `Cc1scc2c1N(C(=O)CN1CCN(C)CC1)c1ccccc1NC2=O.Cl`
Output line: label 1

###

# Test system: Escherichia coli K-12 BW25113;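 note: Wild-type cells incubated without shaking, value is the mean of two biological replicates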
# PROCEDURE DETAILS: relative growth (OD600 normalised to plate interquartile mean) (fraction); higher = less growth inhibition, active = 0.2 or less
# STUDY CONDITIONS: 50 µM; LB; incubation time: overnight (16-24 h)
The whole screen tested about 39,000 compounds, of which about 220 (0.56%) showed activity. Shown is part of a subset that was picked to be rich in actives.
Result category, one only: YES (active), NO (inactive)

Previously resolved entries follow.
O=C1NCCN1c1ncc([N+](=O)[O-])s1    YES
COc1ccc(S(=O)(=O)Nc2ccc3c(c2)C(=O)N([C@@H](C)CO)C[C@@H](C)[C@H](CN(C)Cc2ccc(C(=O)O)cc2)OCCCC[C@@H](C)O3)cc1    NO
Cc1noc(C)c1S(=O)(=O)Nc1ccc2c(c1)CC(=O)N([C@@H](C)CO)C[C@@H](C)[C@H](CN(C)S(C)(=O)=O)O2    NO
COc1ccc(NC(=O)N(C)C[C@H]2OCCCC[C@@H](C)Oc3ccc(NC(=O)c4ccccc4)cc3C(=O)N([C@@H](C)CO)C[C@H]2C)cc1    NO
C[C@@H]1CN([C@H](C)CO)C(=O)c2cc(NC(=O)Nc3ccc(F)cc3)ccc2O[C@@H](C)CCCCO[C@H]1CN(C)C(=O)Nc1ccc(C(F)(F)F)cc1    NO

Would you kindly look at the next entry?
Input line: Write down the call the test reported for this compound. Item: CCC1OC(=O)CC(O)C(C)C(OC2OC(C)C(OC3CC(C)(O)C(O)C(C)O3)C(N(C)C)C2O)C(CC=O)CC(C)C(=O)C=CC(C)=CC1COC1OC(C)C(O)C(OC)C1OC.O=C(O)C(O)C(O)C(=O)O (stereo unspecified)
Output line: NO
